Reference source: the supplement of paper PMC12350171

# Test system: Shigella flexneri
# procedureSummary: growth AUC normalised to DMSO control (fraction of control); higher = less growth inhibition, active = hit call of the paper
# conditionNotes: 20 µM
Where a name gives a salt, the structure may show the parent alone.
Each entry gets Condition not met if its growth AUC normalised to DMSO control stays under 1, and Condition met if its growth AUC normalised to DMSO control is 1 or above.

[
  {
    "compound": "CC1=Nc2ccc(Cl)cc2S(=O)(=O)N1 [Diazoxide]",
    "assignedClass": "Condition met"
  },
  {
    "compound": "COC(=O)[C@H]1[C@H]2C[C@@H]3c4[nH]c5cc(OC)ccc5c4CCN3C[C@H]2C[C@@H](OC(=O)c2cc(OC)c(OC)c(OC)c2)[C@@H]1OC",
    "assignedClass": "Condition met"
  },
  {
    "compound": "Nc1nc(Cl)nc2c1ncn2[C@H]1C[C@H](O)[C@@H](CO)O1",
    "assignedClass": "Condition not met"
  },
  {
    "compound": "O=C(Nc1ccccc1)OCC(CN1CCCCC1)OC(=O)Nc1ccccc1 (stereo not given) [Diperodon hydrochloride]",
    "assignedClass": "Condition met"
  }
]

###

# System: S. enterica typhimurium WT
# procedureSummary: growth AUC normalised to DMSO control (median) (fraction of control); higher = less growth inhibition, active = hit call of the paper
# conditionNotes: 20 µM
Where a name gives a salt, the structure may show the parent alone.

[
  {
    "molecule": "O=C1C(CC[S+]([O-])c2ccccc2)C(=O)N(c2ccccc2)N1c1ccccc1 (configuration not stated) [Sulfinpyrazone]",
    "growth AUC normalised to DMSO control": 0.998
  },
  {
    "molecule": "CC[C@H]1OC(=O)[C@H](C)[C@@H](O[C@H]2C[C@@](C)(OC)[C@@H](O)[C@H](C)O2)[C@H](C)[C@@H](O[C@@H]2O[C@H](C)C[C@H](N(C)C)[C@H]2O)[C@](C)(OC)C[C@@H](C)C(=O)[C@H](C)[C@@H](O)[C@]1(C)O [Clarithromycin]",
    "growth AUC normalised to DMSO control": 0.744
  },
  {
    "molecule": "CCOC(=O)CC(=O)N1CCSC1COc1ccccc1OC (configuration not stated) [Moguisteine]",
    "growth AUC normalised to DMSO control": 1.01
  },
  {
    "molecule": "COC(=O)Nc1nc2cc(C(=O)c3cccs3)ccc2[nH]1 [Nocodazole]",
    "growth AUC normalised to DMSO control": 1.01
  },
  {
    "molecule": "COC(=O)C1=C(C#N)NC(C)=C(C(=O)OC(C)C)C1c1cccc([N+](=O)[O-])c1 (configuration not stated) [Nilvadipine]",
    "growth AUC normalised to DMSO control": 1
  },
  {
    "molecule": "CC[C@H](C)C(=O)O[C@H]1C[C@@H](C)C=C2C=C[C@H](C)[C@H](CC[C@@H]3C[C@@H](O)CC(=O)O3)[C@H]21 [Lovastatin]",
    "growth AUC normalised to DMSO control": 0.99
  },
  {
    "molecule": "O=C(O[C@@H]1C[C@@H]2C[C@H]3C[C@H](C1)N2CC3=O)c1c[nH]c2ccccc12 [Dolasetron mesilate]",
    "growth AUC normalised to DMSO control": 1.01
  },
  {
    "molecule": "COc1cc(Cc2cnc(N)nc2N)cc(OC)c1OC [Trimethoprim]",
    "growth AUC normalised to DMSO control": 0.147
  },
  {
    "molecule": "COc1cc2c(cc1OC)CC(=O)N(CCCN(C)C[C@H]1Cc3cc(OC)c(OC)cc31)CC2 [Ivabradine hydrochloride]",
    "growth AUC normalised to DMSO control": 1.01
  },
  {
    "molecule": "CC1CC(OC(=O)c2ccccc2O)CC(C)(C)C1 (configuration not stated) [Homosalate]",
    "growth AUC normalised to DMSO control": 1.01
  },
  {
    "molecule": "CC(C(=O)O)c1ccc(CC2CCCC2=O)cc1 (configuration not stated) [Loxoprofen]",
    "growth AUC normalised to DMSO control": 1.01
  },
  {
    "molecule": "CCN(CC)CCCC(C)Nc1c2ccc(Cl)cc2nc2ccc(OC)cc12 (configuration not stated) [Quinacrine dihydrochloride hydrate]",
    "growth AUC normalised to DMSO control": 0.99
  }
]

###

# Test system: P. vulgatus RND KO
# procedureSummary: growth AUC normalised to DMSO control (median) (fraction of control); higher = less growth inhibition, active = hit call of the paper
# conditionNotes: 20 µM
Where a name gives a salt, the structure may show the parent alone.
Reported growth AUC normalised to DMSO control values follow for various compounds

[
  {
    "compound": "CN(C)CCCN1c2ccccc2Sc2ccccc21 [Promazine hydrochloride]",
    "measuredOn": "P. vulgatus RND KO",
    "growth AUC normalised to DMSO control": 0.821
  },
  {
    "compound": "CN1CCN(C(c2ccccc2)c2ccccc2)CC1 [Cyclizine hydrochloride]",
    "measuredOn": "P. vulgatus RND KO",
    "growth AUC normalised to DMSO control": 1.02
  },
  {
    "compound": "CC(=O)Nc1ccc(O)cc1",
    "measuredOn": "P. vulgatus RND KO",
    "growth AUC normalised to DMSO control": 1.02
  },
  {
    "compound": "CCCNCC(O)COc1ccccc1C(=O)CCc1ccccc1 (centres undefined) [Propafenone hydrochloride]",
    "measuredOn": "P. vulgatus RND KO",
    "growth AUC normalised to DMSO control": 1.03
  },
  {
    "compound": "CO/N=C(\\C(=O)N[C@@H]1C(=O)N2C(C(=O)O)=C(C[N+]3(C)CCCC3)CS[C@H]12)c1csc(N)n1 [Cefepime hydrochloride]",
    "measuredOn": "P. vulgatus RND KO",
    "growth AUC normalised to DMSO control": 0.0104
  },
  {
    "compound": "CN(C)c1ccc2nc3ccc(=[N+](C)C)cc-3sc2c1",
    "measuredOn": "P. vulgatus RND KO",
    "growth AUC normalised to DMSO control": 1
  },
  {
    "compound": "N=C(NCCCCCCNC(=N)NC(=N)Nc1ccc(Cl)cc1)NC(=N)Nc1ccc(Cl)cc1",
    "measuredOn": "P. vulgatus RND KO",
    "growth AUC normalised to DMSO control": 0.00823
  },
  {
    "compound": "CN[C@@H]1[C@H](O)[C@H](NC)[C@H]2O[C@@]3(O)C(=O)C[C@@H](C)O[C@H]3O[C@@H]2[C@H]1O [Spectinomycin dihydrochloride]",
    "measuredOn": "P. vulgatus RND KO",
    "growth AUC normalised to DMSO control": 1.01
  },
  {
    "compound": "CN(C)C/C=C(/c1ccc(Br)cc1)c1cccnc1 [Zimelidine dihydrochloride monohydrate]",
    "measuredOn": "P. vulgatus RND KO",
    "growth AUC normalised to DMSO control": 1.04
  },
  {
    "compound": "COc1ccc(NS(=O)(=O)c2ccc(N)cc2)nn1",
    "measuredOn": "P. vulgatus RND KO",
    "growth AUC normalised to DMSO control": 1.02
  },
  {
    "compound": "CC[N+](C)(CC)CCC[n+]1c(-c2ccccc2)c2cc(N)ccc2c2ccc(N)cc21 [Propidium iodide]",
    "measuredOn": "P. vulgatus RND KO",
    "growth AUC normalised to DMSO control": 1.05
  },
  {
    "compound": "CC(C)Cn1cnc2c(N)nc3ccccc3c21",
    "measuredOn": "P. vulgatus RND KO",
    "growth AUC normalised to DMSO control": 0.986
  },
  {
    "compound": "Cc1cn(-c2cc(NC(=O)c3ccc(C)c(Nc4nccc(-c5cccnc5)n4)c3)cc(C(F)(F)F)c2)cn1",
    "measuredOn": "P. vulgatus RND KO",
    "growth AUC normalised to DMSO control": 1.03
  },
  {
    "compound": "CNNCc1ccc(C(=O)NC(C)C)cc1 [Procarbazine hydrochloride]",
    "measuredOn": "P. vulgatus RND KO",
    "growth AUC normalised to DMSO control": 1.06
  },
  {
    "compound": "CCCN[C@H]1CCc2nc(N)sc2C1 [Pramipexole dihydrochloride]",
    "measuredOn": "P. vulgatus RND KO",
    "growth AUC normalised to DMSO control": 0.988
  },
  {
    "compound": "NS(=O)(=O)c1cc(Cl)c(Cl)c(S(N)(=O)=O)c1 [Dichlorphenamide]",
    "measuredOn": "P. vulgatus RND KO",
    "growth AUC normalised to DMSO control": 1.05
  },
  {
    "compound": "Cc1c(C)c2c(c(C)c1O)CCC(C)(COc1ccc(CC3SC(=O)NC3=O)cc1)O2 (centres undefined)",
    "measuredOn": "P. vulgatus RND KO",
    "growth AUC normalised to DMSO control": 0.839
  },
  {
    "compound": "c1cnc(N2CCN(Cc3ccc4c(c3)OCO4)CC2)nc1",
    "measuredOn": "P. vulgatus RND KO",
    "growth AUC normalised to DMSO control": 1.07
  },
  {
    "compound": "CN[C@H](CC(C)C)C(=O)N[C@H]1C(=O)N[C@@H](CC(N)=O)C(=O)N[C@H]2C(=O)N[C@H]3C(=O)N[C@H](C(=O)N[C@H](C(=O)O)c4cc(O)cc(O)c4-c4cc3ccc4O)[C@H](O)c3ccc(c(Cl)c3)Oc3cc2cc(c3O[C@@H]2O[C@H](CO)[C@@H](O)[C@H](O)[C@H]2O[C@H]2C[C@](C)(N)[C@H](O)[C@H](C)O2)Oc2ccc(cc2Cl)[C@H]1O [Vancomycin hydrochloride]",
    "measuredOn": "P. vulgatus RND KO",
    "growth AUC normalised to DMSO control": 0.014
  }
]
